- TESTED_ON: T1, human NPR1 on HEK293/hNPR1.myc.DDK cells with 10 nM hANP (NPR1-ANP complex) (human, UniProt P01160 124-151)
- T1 construct: also called NPR1-ANP Complex on the Cell Surface
- T1 sequence: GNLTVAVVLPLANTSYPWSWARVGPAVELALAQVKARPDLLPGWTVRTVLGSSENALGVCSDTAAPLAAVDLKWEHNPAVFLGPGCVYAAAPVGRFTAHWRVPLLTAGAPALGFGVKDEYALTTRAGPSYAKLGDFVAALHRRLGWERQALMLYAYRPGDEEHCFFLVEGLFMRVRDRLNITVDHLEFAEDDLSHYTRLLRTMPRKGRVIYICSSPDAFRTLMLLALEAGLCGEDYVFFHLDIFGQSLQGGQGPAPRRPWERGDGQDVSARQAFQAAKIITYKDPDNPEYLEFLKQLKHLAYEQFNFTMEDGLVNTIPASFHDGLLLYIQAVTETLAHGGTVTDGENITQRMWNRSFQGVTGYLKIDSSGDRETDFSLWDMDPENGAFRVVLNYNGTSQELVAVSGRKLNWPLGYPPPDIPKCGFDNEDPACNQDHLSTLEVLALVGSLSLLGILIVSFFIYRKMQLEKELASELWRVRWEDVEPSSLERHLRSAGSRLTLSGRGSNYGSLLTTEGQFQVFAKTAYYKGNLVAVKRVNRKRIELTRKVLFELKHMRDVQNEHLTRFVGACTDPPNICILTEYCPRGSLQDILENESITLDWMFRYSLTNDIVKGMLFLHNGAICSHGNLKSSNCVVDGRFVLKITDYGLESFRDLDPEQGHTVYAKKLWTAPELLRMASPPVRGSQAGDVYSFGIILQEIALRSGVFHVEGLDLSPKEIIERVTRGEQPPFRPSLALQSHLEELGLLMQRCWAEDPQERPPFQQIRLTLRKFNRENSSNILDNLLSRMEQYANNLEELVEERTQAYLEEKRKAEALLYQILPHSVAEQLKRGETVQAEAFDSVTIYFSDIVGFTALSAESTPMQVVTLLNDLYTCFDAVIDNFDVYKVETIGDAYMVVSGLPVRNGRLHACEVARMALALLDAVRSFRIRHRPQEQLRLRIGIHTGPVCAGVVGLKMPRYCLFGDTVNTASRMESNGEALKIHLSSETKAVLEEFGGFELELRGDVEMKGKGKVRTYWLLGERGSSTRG
- T1 sequence (peptide): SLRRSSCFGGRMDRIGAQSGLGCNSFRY
- PROCEDURE_SUMMARY: ECL cell binding (MSD), +10 nM hANP
QUANTITY: pEC50
The value called pEC50 is obtained by taking minus log10 of the concentration in mol/L.

Q) Which measured pEC50 value corresponds to mAb22810 (antibody, human IgG4, V domains shown) VH: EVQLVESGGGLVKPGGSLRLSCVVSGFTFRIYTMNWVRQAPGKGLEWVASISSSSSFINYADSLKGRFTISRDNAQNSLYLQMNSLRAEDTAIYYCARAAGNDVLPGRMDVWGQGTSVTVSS VL: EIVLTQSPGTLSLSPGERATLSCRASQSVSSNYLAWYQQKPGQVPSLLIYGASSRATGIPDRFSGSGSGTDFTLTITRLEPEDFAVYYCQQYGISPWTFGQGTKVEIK ?
A) 8.43

Q) For the binder mAb22809 (antibody, human IgG4, V domains shown) VH: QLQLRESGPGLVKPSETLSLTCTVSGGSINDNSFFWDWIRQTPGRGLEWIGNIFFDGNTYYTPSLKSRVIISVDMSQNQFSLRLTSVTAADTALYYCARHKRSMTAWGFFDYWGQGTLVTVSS VL: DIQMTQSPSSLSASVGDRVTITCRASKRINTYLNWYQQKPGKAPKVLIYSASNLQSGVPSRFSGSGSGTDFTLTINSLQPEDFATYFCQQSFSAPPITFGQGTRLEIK , what pEC50 is on record?
A) 9.32

Q) Quick one: pEC50 of mAb25491 (antibody, human IgG4, V domains shown) VH: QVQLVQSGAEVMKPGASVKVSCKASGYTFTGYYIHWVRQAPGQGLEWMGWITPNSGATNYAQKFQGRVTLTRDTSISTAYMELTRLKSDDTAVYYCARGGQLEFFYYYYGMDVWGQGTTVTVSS VL: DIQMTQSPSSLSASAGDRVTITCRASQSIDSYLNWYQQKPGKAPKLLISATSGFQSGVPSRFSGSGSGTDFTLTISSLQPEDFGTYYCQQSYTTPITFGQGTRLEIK ?
A) 9.00

Q) Using the record for mAb25479 (antibody, human IgG4, V domains shown) VH: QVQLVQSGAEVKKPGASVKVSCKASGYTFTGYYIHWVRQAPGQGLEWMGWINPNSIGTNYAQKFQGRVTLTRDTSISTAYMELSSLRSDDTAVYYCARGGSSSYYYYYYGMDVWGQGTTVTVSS VL: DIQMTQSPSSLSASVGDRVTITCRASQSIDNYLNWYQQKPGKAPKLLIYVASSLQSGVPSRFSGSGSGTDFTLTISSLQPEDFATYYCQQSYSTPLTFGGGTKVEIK , report its pEC50.
A) 8.92

Q) Give the measured pEC50 of mAb25508 (antibody, human IgG4, V domains shown) VH: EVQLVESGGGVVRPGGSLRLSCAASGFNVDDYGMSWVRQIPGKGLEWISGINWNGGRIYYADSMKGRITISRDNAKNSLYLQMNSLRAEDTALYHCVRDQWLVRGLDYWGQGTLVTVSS VL: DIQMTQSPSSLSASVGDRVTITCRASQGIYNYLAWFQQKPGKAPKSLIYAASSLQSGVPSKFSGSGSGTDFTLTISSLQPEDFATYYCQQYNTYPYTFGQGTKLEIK .
A) 8.89

Q) Quick check: pEC50 of mAb22805 (antibody, human IgG4, V domains shown) VH: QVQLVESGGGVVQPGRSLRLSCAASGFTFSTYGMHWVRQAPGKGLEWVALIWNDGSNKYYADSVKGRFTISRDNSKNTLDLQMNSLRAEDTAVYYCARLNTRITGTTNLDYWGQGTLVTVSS VL: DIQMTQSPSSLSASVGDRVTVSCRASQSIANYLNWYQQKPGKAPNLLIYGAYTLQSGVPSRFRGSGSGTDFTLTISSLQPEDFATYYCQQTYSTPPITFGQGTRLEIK ?
A) 9.19

Q) Give its pEC50 value. Item: mAb22035 (antibody, human IgG4, V domains shown) VH: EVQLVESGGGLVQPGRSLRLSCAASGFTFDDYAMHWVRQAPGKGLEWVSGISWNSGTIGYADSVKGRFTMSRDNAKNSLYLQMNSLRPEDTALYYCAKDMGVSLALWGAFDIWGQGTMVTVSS VL: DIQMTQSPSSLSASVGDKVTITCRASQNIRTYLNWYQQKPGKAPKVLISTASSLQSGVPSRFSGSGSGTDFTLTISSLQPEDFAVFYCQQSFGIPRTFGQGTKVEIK
A) 9.05

Q) For mAb25497 (antibody, human IgG4, V domains shown) VH: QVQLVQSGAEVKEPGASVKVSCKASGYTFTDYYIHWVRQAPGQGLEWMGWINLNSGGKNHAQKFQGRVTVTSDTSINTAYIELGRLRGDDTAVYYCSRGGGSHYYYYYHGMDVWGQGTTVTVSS VL: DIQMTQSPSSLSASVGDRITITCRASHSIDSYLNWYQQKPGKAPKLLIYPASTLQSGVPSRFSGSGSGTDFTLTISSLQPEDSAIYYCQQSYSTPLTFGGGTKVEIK , what is its reported pEC50?
A) 9.06

Q) Quick one: pEC50 of mAb22033 (antibody, human IgG4, V domains shown) VH: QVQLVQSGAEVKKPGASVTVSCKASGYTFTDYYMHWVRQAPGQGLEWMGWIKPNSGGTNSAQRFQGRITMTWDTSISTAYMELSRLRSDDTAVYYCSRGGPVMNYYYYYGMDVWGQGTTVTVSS VL: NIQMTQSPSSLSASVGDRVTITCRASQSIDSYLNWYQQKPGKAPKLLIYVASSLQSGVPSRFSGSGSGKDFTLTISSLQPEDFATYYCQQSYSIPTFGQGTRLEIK ?
A) 9.09

Values compiled from patent US20240309103A1.
